# assaySystem: Fes (UniProt P07332)
# Sequence (P07332 whole entry, looked up): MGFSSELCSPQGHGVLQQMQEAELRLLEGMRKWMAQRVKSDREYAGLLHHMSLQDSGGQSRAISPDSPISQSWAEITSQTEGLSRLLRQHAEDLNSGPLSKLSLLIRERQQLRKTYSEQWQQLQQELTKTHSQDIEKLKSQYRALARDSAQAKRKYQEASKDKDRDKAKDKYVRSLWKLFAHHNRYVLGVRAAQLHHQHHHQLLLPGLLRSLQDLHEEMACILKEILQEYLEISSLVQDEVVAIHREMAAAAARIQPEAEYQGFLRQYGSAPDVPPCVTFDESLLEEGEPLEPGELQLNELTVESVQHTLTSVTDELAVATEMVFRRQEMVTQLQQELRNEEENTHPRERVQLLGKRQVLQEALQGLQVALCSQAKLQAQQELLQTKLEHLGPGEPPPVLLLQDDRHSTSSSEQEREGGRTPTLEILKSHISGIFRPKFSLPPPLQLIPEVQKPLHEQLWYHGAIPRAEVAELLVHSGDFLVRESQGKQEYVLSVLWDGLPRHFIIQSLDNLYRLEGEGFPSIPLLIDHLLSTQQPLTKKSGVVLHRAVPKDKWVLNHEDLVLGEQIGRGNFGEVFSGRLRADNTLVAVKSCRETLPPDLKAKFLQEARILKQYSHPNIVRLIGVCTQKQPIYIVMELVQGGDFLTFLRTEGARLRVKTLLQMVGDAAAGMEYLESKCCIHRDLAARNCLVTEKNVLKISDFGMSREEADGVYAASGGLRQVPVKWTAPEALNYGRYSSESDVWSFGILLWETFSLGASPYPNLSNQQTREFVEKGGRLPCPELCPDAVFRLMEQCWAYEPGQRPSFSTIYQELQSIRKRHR
# measurementDescription: phosphorylation enrichment, bacterial display (enrichment ratio); higher = better substrate or ligand; peptides without Tyr show the background;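 further: 11-residue human phosphosite peptides and single-mutation variants displayed on the E. coli surface, counted by deep sequencing, each peptide's frequency after selection divided by its frequency in the unselected input library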;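 further: frequency after pTyr selection over input frequency; kinase dosed for 20-30% of maximal phosphorylation in three min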
observationType: phosphorylation enrichment
API doc: respond with a numeric literal and nothing else, no unit.

Sample records with phosphorylation enrichment:
Observed phosphorylation enrichment, Fes (UniProt P07332), KAIMIYVSSFF [ACTN4_Y260_T259I_YF] : 1.06

For MDNQEYKDAFT [BRDT_Y331_K336T_YF] on Fes (UniProt P07332), measured phosphorylation enrichment was 1.3

Hey, Fes (UniProt P07332) data for NTGDFCDLFGG [PTPN11_Y63_Y63C_YF] : phosphorylation enrichment came out at 1.11

Considering AIIEEYLHLSD [EIF4G1_Y1253_N1257S] , its phosphorylation enrichment with Fes (UniProt P07332) was recorded as 1.4

phosphorylation enrichment for Fes (UniProt P07332) with input CDGKEYDPVEA [MAPRE2_Y167_Y162C] equals 1.66

More entries:
Item: GGQSVYHVNLH [HINT1_Y109_H112N] | System: Fes (UniProt P07332) | phosphorylation enrichment: 0.617

Tested system Fes (UniProt P07332); phosphorylation enrichment recorded for QPSALYEDRYL [ASS1_Y83_S79P] was 1.06

Measured phosphorylation enrichment (Fes (UniProt P07332)), entry PYGQWYESHYA [RPS8_Y113_R110G] : 2.16

Record for ESFRLYPPVPQ [CYP4B1_Y377] under target or system Fes (UniProt P07332): phosphorylation enrichment reported as 0.704

Tested on Fes (UniProt P07332), the item RHYVYYYSYLL [PTEN_Y177_R173H] showed phosphorylation enrichment equal to 2.26

Test item VGTKRYMAPKV [ACVRL1_Y375_E379K] ; Fes (UniProt P07332); reported phosphorylation enrichment was 0.456

Per the reported Fes (UniProt P07332) data, TCRPPYFHRNC [HGD_Y333_F329C_YF] has phosphorylation enrichment of 1.06

Entry CGTPTCLAPEV [CHEK2_Y390_Y390C] under Fes (UniProt P07332) had phosphorylation enrichment of 1.1

###

# System: AncSZ
# measurementDescription: phosphorylation enrichment, bacterial display (enrichment ratio); higher = better substrate or ligand; peptides without Tyr show the background
Hi, to clarify the labels: yes (1) covers phosphorylation enrichment from 1 upward, no (0) covers anything below 1.

Q. // inclusive: phosphorylation enrichment at least 1? input: TEAEPYYRSLR [NPHS1_Y1138]
A. no (0)

Q. Say whether KMATAYIRSMS [BCO1_Y264_R267S] shows phosphorylation enrichment of 1 or more.
A. no (0)

Q. Given the entry PDSVDYRKKGY [CTSK_Y121] , answer whether its phosphorylation enrichment meets or surpasses 1.
A. yes (1)

Q. Hello, I need to know if ATDLAYFLVCK [ASL_Y375_R379C_YF] has measured phosphorylation enrichment not below 1. Thanks!
A. yes (1)

Q. Check this sequence for phosphorylation enrichment at or above 1: ELTAKYLNFFR [P3H4_Y181_Q186R_YF]
A. no (0)

Q. Could you please find out whether FRRITYFNWRH [PDE6B_Y556_H557Y_YF] has phosphorylation enrichment that meets 1 or exceeds it?
A. no (0)

Q. Is it the case that VFLGAYDHFLP [SLC22A5_Y486_R488H_YF] has phosphorylation enrichment reaching or exceeding 1?
A. yes (1)

Q. Exam item: decide whether the reported phosphorylation enrichment for NNDLCYWVLEL [IARS1_Y434_P437L] is at least 1.
A. yes (1)

Q. Hello, I need to know if IGEGTSGVVFK [CDK2_Y15_Y15S_YF] has measured phosphorylation enrichment not below 1. Thanks!
A. no (0)

Q. Please check the record AMGPVYQAAAL [HYOU1_Y421_A419P] and state if its phosphorylation enrichment is at or above 1.
A. no (0)

New cases:
Q. For this sequence, is measured phosphorylation enrichment 1 or higher? ARLEYYENEKK [IRS1_Y47]
A. yes (1)

Q. phosphorylation enrichment >= 1 for PIFEGYGLPHA [ACTA1_Y171_A172G_YF] ?
A. no (0)

Q. Given the entry HCHEGYILHGA [SVEP1_Y2921] , answer whether its phosphorylation enrichment meets or surpasses 1.
A. yes (1)

Q. Item AELVRYYMEHH [PTPN11_Y80_Q79R] with phosphorylation enrichment of 1 or above?
A. no (0)

Q. Test whether the sequence FMYKVYSDPQP [FGFR1_Y280_C277Y] records phosphorylation enrichment of 1 or higher.
A. yes (1)

Q. Test whether the sequence SASRSYSRSRS [SRRM4_Y549] records phosphorylation enrichment of 1 or higher.
A. no (0)

Q. Given the entry TQKLAYMELQQ [CENPF_Y700] , answer whether its phosphorylation enrichment meets or surpasses 1.
A. no (0)

Q. Would you say SVTCTYSPARN [TP53_Y126_L130R] shows phosphorylation enrichment at minimum 1?
A. yes (1)

Q. Check if phosphorylation enrichment >= 1 (inclusive). Item: TFEYRYLEDQD [CNOT3_Y746_R750Q]
A. yes (1)

Q. Determine whether measured phosphorylation enrichment meets or exceeds 1 for GRQGIYTENER [GPR143_Y231]
A. no (0)

Q. Say whether WSISFYPQVIM [CTNS_Y143] shows phosphorylation enrichment of 1 or more.
A. yes (1)

Q. Could you please find out whether YDDGKYVYVVT [RPS6KA3_Y488] has phosphorylation enrichment that meets 1 or exceeds it?
A. yes (1)

Q. Check if phosphorylation enrichment >= 1 (inclusive). Item: FLNSSYINIST [IL23R_Y178_T175N_YF]
A. no (0)
